stated-conditions: Ebola virus entry assay, blue channel fluorescence
The source made the active and inactive calls. Calls come from the whole dose curve.
Classes used: active, inactive

> print(dat)
                                    compound     class
 1  C[C@@H](O)[C@H]1C(=O)N2C(C(=O)O)=C(S[C@@H]3CN[C@H](C(=O)N(C)C)C3)[C@H](C)[C@H]12  inactive
 2  N[C@@H](C(=O)N[C@@H]1C(=O)N2C(C(=O)O)=C(Cl)CS[C@H]12)c1ccccc1  inactive
 3  COC(=O)CCc1ccc(OCC(O)CNC(C)C)cc1 (configuration not stated)  inactive
 4  CC1Cc2ccccc2N1NC(=O)c1ccc(Cl)c(S(N)(=O)=O)c1 (configuration not stated)  inactive
 5  C[C@@H](O[C@H]1OCCN(Cc2n[nH]c(=O)[nH]2)[C@H]1c1ccc(F)cc1)c1cc(C(F)(F)F)cc(C(F)(F)F)c1  inactive
 6  COc1ccccc1OCCNCC(O)COc1cccc2[nH]c3ccccc3c12 (configuration not stated)    active
 7  CCCN1C[C@H](CSC)C[C@@H]2c3cccc4[nH]cc(c34)C[C@H]21  inactive
 8           Cc1ccc(C)c(OCCCC(C)(C)C(=O)O)c1  inactive
 9  COc1cc2nc(N3CCN(C(=O)C4CCCO4)CC3)nc(N)c2cc1OC (configuration not stated)  inactive
10  N[C@@H](Cc1cc(I)c(Oc2cc(I)c(O)c(I)c2)c(I)c1)C(=O)O  inactive
11  CC(C)C(=O)Nc1ccc([N+](=O)[O-])c(C(F)(F)F)c1  inactive
12        OC(Cn1cncn1)(Cn1cncn1)c1ccc(F)cc1F  inactive
13  CNCCC(Oc1ccc(C(F)(F)F)cc1)c1ccccc1 (configuration not stated)    active
14   Cc1ccc(-c2nc3ccc(C)cn3c2CC(=O)N(C)C)cc1  inactive
15  CN(C)c1ccc(O)c2c1C[C@H]1C[C@H]3[C@H](N(C)C)C(=O)C(C(N)=O)=C(O)[C@@]3(O)C(=O)C1=C2O  inactive
16  CCCC(=O)Nc1ccc(OCC(O)CNC(C)C)c(C(C)=O)c1 (configuration not stated)  inactive
17      C=C(CC)C(=O)c1ccc(OCC(=O)O)c(Cl)c1Cl  inactive
18  CN(C)CCOC(C)(c1ccccc1)c1ccccn1 (configuration not stated)  inactive
19  NC(=O)C(c1ccccc1)(c1ccccc1)[C@@H]1CCN(CCc2ccc3c(c2)CCO3)C1  inactive
20  CC(C)(C)NC(=O)[C@@H]1CN(Cc2cccnc2)CCN1C[C@@H](O)C[C@@H](Cc1ccccc1)C(=O)N[C@H]1c2ccccc2C[C@H]1O  inactive
21      CN(C/C=C/C#CC(C)(C)C)Cc1cccc2ccccc12  inactive
22  CC(COc1ccccc1)N(CCCl)Cc1ccccc1 (configuration not stated)  inactive
23  CC(C)Nc1cccnc1N1CCN(C(=O)c2cc3cc(NS(C)(=O)=O)ccc3[nH]2)CC1  inactive
24  CCOC(=O)Nc1ccc2c(c1)N(C(=O)CCN1CCOCC1)c1ccccc1S2  inactive
25              NC(=O)c1cn(Cc2c(F)cccc2F)nn1  inactive
26                              CNCCc1ccccn1  inactive
27           CCCNC(=O)NS(=O)(=O)c1ccc(Cl)cc1  inactive
28         CCN(CC)CCOC(=O)C1(C2CCCCC2)CCCCC1  inactive
29  Cc1nc2n(c(=O)c1CCN1CCC(c3noc4cc(F)ccc34)CC1)CCC[C@H]2O  inactive
30  CC(C)NCC(O)c1ccc(O)c(O)c1 (configuration not stated)  inactive
31            CN(C)CCC=C1c2ccccc2CCc2ccccc21    active
32  CCC(COC(=O)c1cc(OC)c(OC)c(OC)c1)(c1ccccc1)N(C)C (configuration not stated)  inactive
33  Nc1nc(F)nc2c1ncn2[C@@H]1O[C@H](CO)[C@@H](O)[C@@H]1O  inactive
34  Clc1ccc(C(c2ccccc2Cl)C(Cl)Cl)cc1 (configuration not stated)  inactive
35  CC[C@@H](CO)NC(=O)[C@@H]1C=C2c3cccc4c3c(cn4C)C[C@H]2N(C)C1  inactive
36  CN(Cc1cnc2nc(N)nc(N)c2n1)c1ccc(C(=O)N[C@@H](CCC(=O)O)C(=O)O)cc1  inactive
37  COc1cc2nc(N3CCN(C(=O)C4COc5ccccc5O4)CC3)nc(N)c2cc1OC (configuration not stated)  inactive
38  C[C@]12CC[C@H]3[C@@H](CCC4=CC(=O)CC[C@@H]43)[C@@H]1CC[C@@H]2OC(=O)CCc1ccccc1  inactive
39  CCN(CC)CCCC(C)Nc1ccnc2cc(Cl)ccc12 (configuration not stated)    active
40  CC/C(=C(\c1ccccc1)c1ccc(OCCN(C)C)cc1)c1ccccc1    active
41  C[C@@H]1C[C@H]2[C@@H]3CCC4=CC(=O)C=C[C@]4(C)[C@@]3(F)[C@@H](O)C[C@]2(C)[C@@]1(O)C(=O)CO  inactive
42  C[C@]12C/C(=C/O)C(=O)C[C@@H]1CC[C@@H]1[C@@H]2CC[C@@]2(C)[C@H]1CC[C@]2(C)O  inactive
